target: full-length recombinant rat vitamin D receptor (Rattus norvegicus); construct: Full-length recombinant rat receptor was expressed in E. coli; histidine tag (C); made in house; host or cells: E. coli BL21 (DE3) Codon Plus RIL; test: Vitamin D receptor competitive binding with [3H]-1,25(OH)2D3; settings: full-length recombinant rat VDR; FIG. 1; read-out: Ki, competition with [3H]-1,25(OH)2D3 for binding to the vitamin D receptor
Sequence (P13053 whole entry): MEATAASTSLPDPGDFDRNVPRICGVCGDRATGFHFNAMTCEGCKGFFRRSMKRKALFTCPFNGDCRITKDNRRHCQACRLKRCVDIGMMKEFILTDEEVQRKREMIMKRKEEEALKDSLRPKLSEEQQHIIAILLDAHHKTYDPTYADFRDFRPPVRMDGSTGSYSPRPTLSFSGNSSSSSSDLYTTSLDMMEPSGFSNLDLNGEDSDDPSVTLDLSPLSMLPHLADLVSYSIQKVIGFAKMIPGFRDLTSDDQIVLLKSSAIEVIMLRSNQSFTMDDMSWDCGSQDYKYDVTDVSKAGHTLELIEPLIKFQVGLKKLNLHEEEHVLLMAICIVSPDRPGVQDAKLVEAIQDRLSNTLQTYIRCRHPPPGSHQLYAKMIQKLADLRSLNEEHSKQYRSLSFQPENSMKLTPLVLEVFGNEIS
Readout: pKi
Please note pKi is a logarithmic value: minus log10 of concentration in mol/L. Answer with that number alone.

Reported pKi for C=C1[C@H](O)CC(=C/C=C2\CCC[C@]3(C)[C@@H]([C@@H](C)CC(F)F)CC[C@@H]23)C[C@H]1O [FF-44] : what is it?
9.70
